TARGET_UNDER_TEST: Protein kinase C delta type (Homo sapiens)
Sequence (Q05655 whole entry): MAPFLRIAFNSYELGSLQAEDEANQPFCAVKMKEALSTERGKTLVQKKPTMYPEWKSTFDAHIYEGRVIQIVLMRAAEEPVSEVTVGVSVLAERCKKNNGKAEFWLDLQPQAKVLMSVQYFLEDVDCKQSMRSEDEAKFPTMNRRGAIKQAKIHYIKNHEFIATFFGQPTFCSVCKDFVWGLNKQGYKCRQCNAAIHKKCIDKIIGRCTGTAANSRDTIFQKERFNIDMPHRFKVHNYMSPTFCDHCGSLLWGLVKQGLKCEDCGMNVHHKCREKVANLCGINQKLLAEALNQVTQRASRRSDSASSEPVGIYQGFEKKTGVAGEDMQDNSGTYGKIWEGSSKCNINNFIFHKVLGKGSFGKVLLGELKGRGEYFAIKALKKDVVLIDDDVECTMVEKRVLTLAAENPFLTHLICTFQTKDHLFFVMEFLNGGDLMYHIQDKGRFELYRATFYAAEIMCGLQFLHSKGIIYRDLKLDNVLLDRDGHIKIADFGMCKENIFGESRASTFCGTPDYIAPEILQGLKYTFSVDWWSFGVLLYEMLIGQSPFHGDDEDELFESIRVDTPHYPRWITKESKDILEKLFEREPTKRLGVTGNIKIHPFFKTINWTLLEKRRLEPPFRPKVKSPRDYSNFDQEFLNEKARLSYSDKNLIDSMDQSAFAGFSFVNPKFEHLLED
ASSAY_PROCEDURE: Activation of PKCdelta (unknown origin) expressed in human LNCAP cells harboring GFP-tagged RasGRP3 assessed as phosphorylation at ser299 residues after 30 mins by immunoblot method
Format: cell-based
EXPERIMENTAL_READOUT: EC50 (µM)
API: value field is a number in µM; no unit string.

Report EC50 for Cn1cc(/C=C2\CC(CO)(COC(=O)C(C)(C)C)OC2=O)c2ccccc21 (stereo unspecified) please.
8.28

----------
TARGET_UNDER_TEST: Protein kinase C alpha type (Homo sapiens, UniProt P17252)
ASSAY_PROCEDURE: Displacement of [3H]PDBu from full length recombinant human PKCalpha expressed in baculovirus expression system after 5 mins by scintillation counting
EXPERIMENTAL_READOUT: pKi
Expect pKi as a plain number equal to -log10 of the molar concentration.

Reference set (2 entries):
| COMPOUND | TARGET_UNDER_TEST | VALUE_REPORTED |
| --- | --- | --- |
| Cn1cc(/C=C/C(=O)OCC2(CO)C/C(=C\c3cn(C)c4ccccc34)C(=O)O2)c2ccccc21 (stereo not given) | Protein kinase C alpha type (Homo sapiens, UniProt P17252) | 6.43 |
| CN(C)c1ccc(C(=O)OCC2(CO)C/C(=C\c3ccccn3)C(=O)O2)cc1 (stereo not given) | Protein kinase C alpha type (Homo sapiens, UniProt P17252) | 5.83 |

Report pKi for Cn1cc(/C=C2\CC(CO)(COC(=O)c3ccc(Cl)cc3)OC2=O)c2ccccc21 (stereo not given) please.
6.84

Report pKi for CC(C)(C)C(=O)OCC1(CO)C/C(=C\c2csc3ccccc23)C(=O)O1 (stereo not given) please.
7.54

Report pKi for COc1ccc(/C=C2\CC(CO)(COC(=O)c3ccc(OC)cc3)OC2=O)cc1 (stereo not given) please.
7.07

----------
Quick reference for Ki among some compounds
Sequence of the target: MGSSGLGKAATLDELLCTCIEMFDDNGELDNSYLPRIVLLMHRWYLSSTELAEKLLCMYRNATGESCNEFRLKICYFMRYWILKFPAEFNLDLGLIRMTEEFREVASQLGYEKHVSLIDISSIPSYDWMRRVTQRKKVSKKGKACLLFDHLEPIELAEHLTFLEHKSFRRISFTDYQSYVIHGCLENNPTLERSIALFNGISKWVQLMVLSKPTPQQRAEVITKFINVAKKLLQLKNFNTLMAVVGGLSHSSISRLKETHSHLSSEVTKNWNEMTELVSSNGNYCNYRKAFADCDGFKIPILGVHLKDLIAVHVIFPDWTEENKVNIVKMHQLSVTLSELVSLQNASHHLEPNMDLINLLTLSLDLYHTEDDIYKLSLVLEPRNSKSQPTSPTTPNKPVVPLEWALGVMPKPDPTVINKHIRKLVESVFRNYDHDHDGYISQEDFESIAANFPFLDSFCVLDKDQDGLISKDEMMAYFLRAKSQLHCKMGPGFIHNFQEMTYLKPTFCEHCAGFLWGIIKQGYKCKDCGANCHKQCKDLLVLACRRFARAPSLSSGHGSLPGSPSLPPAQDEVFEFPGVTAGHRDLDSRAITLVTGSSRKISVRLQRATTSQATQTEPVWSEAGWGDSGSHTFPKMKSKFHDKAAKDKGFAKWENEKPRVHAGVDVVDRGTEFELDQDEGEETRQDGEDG
API: value field is a number in nM; no unit string.

Reference set (2 entries):
| COMPOUND | VALUE_REPORTED |
| --- | --- |
| O=C1OC(CO)(COC(=O)c2ccc(Cl)cc2)C/C1=C\c1ccccn1 (stereo not drawn) | 29 |
| Cn1cc(/C=C2\CC(CO)(COC(=O)/C=C/c3ccccn3)OC2=O)c2ccccc21 (stereo not drawn) | 69.7 |

Report Ki for CC(C)Cn1cc(/C=C2\CC(CO)(COC(=O)C(C)(C)C)OC2=O)c2ccccc21 (stereo not drawn) please.
3.03

----------
Target chain: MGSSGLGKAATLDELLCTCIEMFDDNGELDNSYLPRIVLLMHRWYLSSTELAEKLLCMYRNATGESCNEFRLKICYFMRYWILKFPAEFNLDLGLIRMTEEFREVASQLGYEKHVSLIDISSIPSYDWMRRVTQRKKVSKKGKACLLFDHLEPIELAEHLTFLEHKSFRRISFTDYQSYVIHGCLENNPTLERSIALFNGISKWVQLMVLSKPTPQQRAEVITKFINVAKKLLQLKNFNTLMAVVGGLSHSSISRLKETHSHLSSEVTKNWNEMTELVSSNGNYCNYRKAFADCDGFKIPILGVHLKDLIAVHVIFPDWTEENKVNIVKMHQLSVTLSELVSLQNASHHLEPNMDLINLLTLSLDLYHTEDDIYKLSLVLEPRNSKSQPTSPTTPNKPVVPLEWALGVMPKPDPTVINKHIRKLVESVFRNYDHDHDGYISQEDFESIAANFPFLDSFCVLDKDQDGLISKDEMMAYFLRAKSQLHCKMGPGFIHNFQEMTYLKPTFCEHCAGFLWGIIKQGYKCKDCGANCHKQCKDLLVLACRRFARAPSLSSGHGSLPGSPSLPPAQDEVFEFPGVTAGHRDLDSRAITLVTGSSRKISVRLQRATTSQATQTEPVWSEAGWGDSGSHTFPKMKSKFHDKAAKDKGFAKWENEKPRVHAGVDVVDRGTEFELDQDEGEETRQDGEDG
Please assign Not fulfilled whenever Ki is at or above 7 nM, and Fulfilled whenever it is below.

| COMPOUND | ANSWER_LABEL |
| --- | --- |
| Cn1cc(/C=C2\CC(CO)(COC(=O)C(C)(C)C)OC2=O)c2cc(Cl)ccc21 (stereo not given) | Fulfilled |
| Cn1cc(/C=C2/CC(CO)(COC(=O)C(C)(C)C)OC2=O)c2cc([N+](=O)[O-])ccc21 (stereo not given) | Not fulfilled |
| COc1ccc(/C=C2\CC(CO)(COC(=O)C(C)(C)C)OC2=O)cc1 (stereo not given) | Fulfilled |

API: the following record is the query input.
Ki strictly < 7 nM for this compound? COc1ccc(C(=O)OCC2(CO)C/C(=C\c3ccccn3)C(=O)O2)cc1 (stereo not given)
Not fulfilled

----------
TARGET_UNDER_TEST: Protein kinase C alpha type (Homo sapiens, UniProt P17252)
ASSAY_PROCEDURE: Displacement of [3H]PDBu from full length recombinant human PKCalpha expressed in baculovirus expression system after 5 mins by scintillation counting
EXPERIMENTAL_READOUT: Ki (nM)
API: value field is a number in nM; no unit string.

| MOLECULE | TARGET_UNDER_TEST | Ki / nM |
| --- | --- | --- |
| COc1ccc(/C=C2\CC(CO)(COC(=O)c3ccc(Cl)cc3)OC2=O)cc1 (stereo not given) | Protein kinase C alpha type (Homo sapiens, UniProt P17252) | 30.1 |

Report Ki for COc1ccc(C(=O)OCC2(CO)C/C(=C\c3ccc(Cl)cc3)C(=O)O2)cc1 (stereo not given) please.
27.6

Report Ki for Cn1nc(/C=C2\CC(CO)(COC(=O)C(C)(C)C)OC2=O)c2ccccc21 (stereo not given) please.
184

Report Ki for CCCCCCC(=O)OCC1(CO)C/C(=C\c2cn(C)c3ccccc23)C(=O)O1 (stereo not given) please.
135

Report Ki for CC(C)Cn1cc(/C=C2\CC(CO)(COC(=O)C(C)(C)C)OC2=O)c2ccccc21 (stereo not given) please.
15.6

----------
TARGET_UNDER_TEST: Ras guanyl-releasing protein 3 (Homo sapiens, UniProt Q8IV61)
ASSAY_PROCEDURE: Activation of RasGRP3 in human Ramos cells assessed as ERK1/2 phosphorylation after 30 mins by immunoblot method
Type: cell-based
EXPERIMENTAL_READOUT: pEC50
Expect pEC50 as a plain number equal to -log10 of the molar concentration.

Report pEC50 for Cn1cc(/C=C2\CC(CO)(COC(=O)C(C)(C)C)OC2=O)c2ccccc21 (stereo unspecified) please.
5.22

----------
Quick reference for Ki among some molecules
TARGET_UNDER_TEST: Protein kinase C epsilon type (Homo sapiens, UniProt Q02156)
Sequence (Q02156 whole entry): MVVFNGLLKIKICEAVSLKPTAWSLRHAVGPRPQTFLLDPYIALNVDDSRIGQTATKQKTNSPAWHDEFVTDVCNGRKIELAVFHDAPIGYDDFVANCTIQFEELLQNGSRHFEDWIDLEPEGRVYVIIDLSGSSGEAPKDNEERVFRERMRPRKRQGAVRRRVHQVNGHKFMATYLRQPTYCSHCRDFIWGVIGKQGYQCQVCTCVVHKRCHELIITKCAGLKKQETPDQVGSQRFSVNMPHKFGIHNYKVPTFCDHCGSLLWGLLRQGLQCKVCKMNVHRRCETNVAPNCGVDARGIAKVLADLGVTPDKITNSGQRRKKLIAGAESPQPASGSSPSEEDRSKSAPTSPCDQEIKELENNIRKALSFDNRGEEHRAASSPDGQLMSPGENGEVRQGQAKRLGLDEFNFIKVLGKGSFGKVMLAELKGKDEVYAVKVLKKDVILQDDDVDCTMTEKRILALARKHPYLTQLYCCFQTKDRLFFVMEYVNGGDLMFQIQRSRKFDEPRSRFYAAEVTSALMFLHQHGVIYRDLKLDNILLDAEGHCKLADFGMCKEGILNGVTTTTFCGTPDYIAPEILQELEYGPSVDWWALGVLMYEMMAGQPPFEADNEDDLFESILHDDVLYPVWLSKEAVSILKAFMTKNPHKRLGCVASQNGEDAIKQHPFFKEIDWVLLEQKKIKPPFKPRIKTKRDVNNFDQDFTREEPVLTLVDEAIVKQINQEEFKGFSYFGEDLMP
ASSAY_PROCEDURE: Displacement of [3H]PDBu from full length recombinant human PKCepsilon expressed in baculovirus expression system after 5 mins by scintillation counting

Report Ki for CN(C)c1ccc(C(=O)OCC2(CO)C/C(=C\c3ccccn3)C(=O)O2)cc1 (stereo unspecified) please.
328 nM
